For each of the compounds below, state its MIC.
test system: Serratia marcescens; experiment: In vitro antibacterial activity against Serratia marcescens A20019; type: functional
Output should be the measured figure followed by the unit it is expressed in.

Take a look at these entries with their results.
{"SMILES RECORD": "CC(C)(C)n1cc(C(=O)O)c(=O)c2cc(F)c(N3C[C@@]4(C)C[C@@H]3CN4)nc21.Cl", "MIC": "0.13 µg/mL"}
{"SMILES RECORD": "C[C@@H]1N[C@@H]2C[C@H]1N(c1nc3c(cc1F)c(=O)c(C(=O)O)cn3-c1ccc(F)cc1F)C2.Cl", "MIC": "0.25 µg/mL"}
{"SMILES RECORD": "CN1C[C@H]2C[C@@H]1CN2c1nc2c(cc1F)c(=O)c(C(=O)O)cn2C(C)(C)C", "MIC": "0.25 µg/mL"}
{"SMILES RECORD": "Cc1c(F)c(N2C[C@H]3C[C@@H]2[C@@H](C)N3)nc2c1c(=O)c(C(=O)O)cn2C1CC1.Cl", "MIC": "0.5 µg/mL"}
{"SMILES RECORD": "C[C@H]1[C@H]2C[C@H](CN2)N1c1nc2c(cc1F)c(=O)c(C(=O)O)cn2C(C)(C)C.Cl", "MIC": "0.25 µg/mL"}
{"SMILES RECORD": "Cc1c(F)c(N2[C@H]3CN[C@H](C3)[C@@H]2C)nc2c1c(=O)c(C(=O)O)cn2C1CC1.Cl", "MIC": "0.13 µg/mL"}
{"SMILES RECORD": "CC(C)(C)n1cc(C(=O)O)c(=O)c2cc(F)c(N3C[C@H]4C[C@]3(C)CN4)nc21.Cl", "MIC": "1 µg/mL"}
{"SMILES RECORD": "Cc1c(F)c(N2[C@H]3CN[C@H](C3)[C@H]2C)nc2c1c(=O)c(C(=O)O)cn2C1CC1.Cl", "MIC": "0.5 µg/mL"}
{"SMILES RECORD": "O=C(O)c1cn(C2CC2)c2cc(N3CCNCC3)c(F)cc2c1=O", "MIC": "0.03 µg/mL"}
{"SMILES RECORD": "Cc1c(F)c(N2C[C@H]3C[C@@H]2CN3)nc2c1c(=O)c(C(=O)O)cn2C1CC1", "MIC": "0.006 µg/mL"}

Consider the following items and state reported MIC for each.
1. Cc1c(F)c(N2C[C@H]3C[C@@H]2[C@H](C)N3)nc2c1c(=O)c(C(=O)O)cn2C(C)(C)C.Cl
2. C[C@@H]1[C@H]2C[C@H](CN2)N1c1nc2c(cc1F)c(=O)c(C(=O)O)cn2C(C)(C)C.Cl
3. CC(C)(C)n1cc(C(=O)O)c(=O)c2cc(F)c(N3C[C@H]4C[C@@H]3CN4)nc21
4. Cc1c(F)c(N2C[C@H]3C[C@@H]2[C@H](C)N3)nc2c1c(=O)c(C(=O)O)cn2C1CC1.Cl
5. C[C@@H]1N[C@@H]2C[C@H]1N(c1nc3c(cc1F)c(=O)c(C(=O)O)cn3C(C)(C)C)C2.Cl
6. C[C@H]1N[C@@H]2C[C@H]1N(c1nc3c(cc1F)c(=O)c(C(=O)O)cn3C(C)(C)C)C2.Cl

Reply:
1: 0.5 µg/mL; 2: 0.25 µg/mL; 3: 0.06 µg/mL; 4: 0.13 µg/mL; 5: 0.13 µg/mL; 6: 0.25 µg/mL

###

test: Plasma half-life after intravenous administration to mice; assay type: ADME, organism-based; details: mouse
fulfilled if half-life is below 1 h. not fulfilled if not; exact matches included in not fulfilled.

Would you please look over these solved cases?
{"SMILES RECORD": "CN1C[C@H]2C[C@@H]1CN2c1nc2c(cc1F)c(=O)c(C(=O)O)cn2C(C)(C)C", "ASSIGNED CATEGORY": "not fulfilled"}
{"SMILES RECORD": "C[C@H]1N[C@@H]2C[C@H]1N(c1nc3c(cc1F)c(=O)c(C(=O)O)cn3C(C)(C)C)C2.Cl", "ASSIGNED CATEGORY": "fulfilled"}
{"SMILES RECORD": "C[C@@H]1N[C@@H]2C[C@H]1N(c1nc3c(cc1F)c(=O)c(C(=O)O)cn3C(C)(C)C)C2.Cl", "ASSIGNED CATEGORY": "not fulfilled"}
{"SMILES RECORD": "CC(C)(C)n1cc(C(=O)O)c(=O)c2cc(F)c(N3C[C@H]4C[C@@H]3CN4)nc21", "ASSIGNED CATEGORY": "not fulfilled"}
{"SMILES RECORD": "Cc1c(F)c(N2C[C@H]3C[C@@H]2CN3)nc2c1c(=O)c(C(=O)O)cn2C1CC1", "ASSIGNED CATEGORY": "not fulfilled"}

Task item: State whether 1 h exceeds half-life recorded for C[C@@H]1[C@H]2C[C@H](CN2)N1c1nc2c(cc1F)c(=O)c(C(=O)O)cn2C(C)(C)C.Cl .
Reply: fulfilled

Task item: State whether 1 h exceeds half-life recorded for C[C@H]1[C@H]2C[C@H](CN2)N1c1nc2c(cc1F)c(=O)c(C(=O)O)cn2C(C)(C)C.Cl .
Reply: not fulfilled

Task item: State whether 1 h exceeds half-life recorded for Cc1c(F)c(N2C[C@H]3C[C@@H]2[C@H](C)N3)nc2c1c(=O)c(C(=O)O)cn2C1CC1.Cl .
Reply: not fulfilled

###

For each of the compounds below, state its logD.
experiment: Partition coefficient (logD); format: physicochemical; settings: octanol/water
Answers are plain numbers.

Take a look at these entries with their results.
{"SMILES RECORD": "C[C@H]1[C@H]2C[C@H](CN2)N1c1nc2c(cc1F)c(=O)c(C(=O)O)cn2C(C)(C)C.Cl", "logD": -0.22}
{"SMILES RECORD": "C[C@H]1N[C@@H]2C[C@H]1N(c1nc3c(cc1F)c(=O)c(C(=O)O)cn3C(C)(C)C)C2.Cl", "logD": -0.12}
{"SMILES RECORD": "CN1C[C@H]2C[C@@H]1CN2c1nc2c(cc1F)c(=O)c(C(=O)O)cn2C(C)(C)C", "logD": 0.21}
{"SMILES RECORD": "Cc1c(F)c(N2C[C@H]3C[C@@H]2[C@H](C)N3)nc2c1c(=O)c(C(=O)O)cn2C1CC1.Cl", "logD": 0.71}
{"SMILES RECORD": "Cc1c(F)c(N2[C@H]3CN[C@H](C3)[C@H]2C)nc2c1c(=O)c(C(=O)O)cn2C1CC1.Cl", "logD": 1}
{"SMILES RECORD": "C[C@@H]1N[C@@H]2C[C@H]1N(c1nc3c(cc1F)c(=O)c(C(=O)O)cn3-c1ccc(F)cc1F)C2.Cl", "logD": -0.14}
{"SMILES RECORD": "C[C@@H]1N[C@@H]2C[C@H]1N(c1nc3c(cc1F)c(=O)c(C(=O)O)cn3C(C)(C)C)C2.Cl", "logD": 0.1}

Please find the next compound below.
Task item: Please give measured logD of the following entry: Cc1c(F)c(N2[C@H]3CN[C@H](C3)[C@@H]2C)nc2c1c(=O)c(C(=O)O)cn2C1CC1.Cl
Reply: 0.73

###

assay: percent urinary recovery in 24 hr after intravenous administration to mice; format: ADME, organism-based; settings: mouse, urine, read-out: UR
For each of the compounds below, state its dose excreted at 24 h.
Give bare numbers, in %.

Take a look at these entries with their results.
{"SMILES RECORD": "CN1C[C@H]2C[C@@H]1CN2c1nc2c(cc1F)c(=O)c(C(=O)O)cn2C(C)(C)C", "dose excreted at 24 h / %": 15}
{"SMILES RECORD": "CC(C)(C)n1cc(C(=O)O)c(=O)c2cc(F)c(N3C[C@H]4C[C@@H]3CN4)nc21", "dose excreted at 24 h / %": 30}
{"SMILES RECORD": "C[C@@H]1[C@H]2C[C@H](CN2)N1c1nc2c(cc1F)c(=O)c(C(=O)O)cn2C(C)(C)C.Cl", "dose excreted at 24 h / %": 2}
{"SMILES RECORD": "C[C@H]1N[C@@H]2C[C@H]1N(c1nc3c(cc1F)c(=O)c(C(=O)O)cn3C(C)(C)C)C2.Cl", "dose excreted at 24 h / %": 18}
{"SMILES RECORD": "Cc1c(F)c(N2C[C@H]3C[C@@H]2CN3)nc2c1c(=O)c(C(=O)O)cn2C1CC1", "dose excreted at 24 h / %": 41}

Consider the following items and state reported dose excreted at 24 h for each.
1. C[C@@H]1N[C@@H]2C[C@H]1N(c1nc3c(cc1F)c(=O)c(C(=O)O)cn3C(C)(C)C)C2.Cl
2. Cc1c(F)c(N2C[C@H]3C[C@@H]2[C@H](C)N3)nc2c1c(=O)c(C(=O)O)cn2C1CC1.Cl
3. C[C@H]1[C@H]2C[C@H](CN2)N1c1nc2c(cc1F)c(=O)c(C(=O)O)cn2C(C)(C)C.Cl

Reply:
1: 16; 2: 16; 3: 16
